Tested target: T1, hPygo1 PHD finger V350E (human, UniProt Q9Y3Y4 333-402, V350E)
T1 sequence: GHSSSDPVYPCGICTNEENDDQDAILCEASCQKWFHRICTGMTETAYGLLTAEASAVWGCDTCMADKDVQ
Procedure summary: ITC
pKd: −log10 of the molar value.
Endpoint label: pKd

Binder | Measured
ARTKQTARKSTGGKA (trimethyl-lysine at K4) [H3K4me3 15-mer histone H3 tail peptide] | 4.01

These entries and their values trace back to paper PMC2726290.
